- Tested on: crabgrass
- Assay Name: Test B preemergence/postemergence greenhouse plant response rating 0 to 10
- Assay type: in vivo, Digitaria spp.
- Recorded Conditions: PREEMERGENCE, Rate 50 g/ha; 0 to 10 scale
Observable: Plant response rating, Crabgrass
Simply state the number, no unit and no words.

Guide cases for Plant response rating, Crabgrass, answers given:
C#CC(C)Oc1cc(-c2nn3c(c2Cl)CCCC3)c(Cl)cc1Cl (centres unmarked) : 2
CC(C)OC(=O)COc1cc(-c2nn3c(c2Cl)CCCC3)c(F)cc1Cl : 0
C=CCN1C(=O)COc2cc(F)c(-c3nn4c(c3Br)CCCC4)cc21 : 0
CC(C)(C)C(=O)COc1cc(-c2nn3c(c2Cl)CCCC3)c(Cl)cc1Cl : 2

Next, consider the following compound.
**Q:** Name the recorded Plant response rating, Crabgrass of the item COCOc1cc(-c2nn3c(c2Cl)CCCC3)c(F)cc1Cl in your answer.
**A:** 0

----------
- System: cheatgrass
- Assay Name: Test B preemergence/postemergence greenhouse plant response rating 0 to 10
- Assay type: in vivo, Bromus secalinus
- Recorded Conditions: PREEMERGENCE, Rate 50 g/ha; 0 to 10 scale
Observable: Plant response rating, Cheatgrass

Guide cases for Plant response rating, Cheatgrass, answers given:
C=CCOc1cc(-c2nn3c(c2Cl)CCCC3)c(Cl)cc1Cl [Compound 71] : 0
FCCCOc1cc(-c2nn3c(c2Cl)CCCC3)c(F)cc1Cl [Compound 79] : 2
Clc1ccc(-c2nc3n(c2Cl)CCC=C3)c(Cl)c1 [Compound 1] : 0
CCOC(=O)COc1cc(-c2nn3c(c2Cl)CCCC3)c(F)cc1Cl [Compound 42] : 0

Next, consider the following compound.
**Q:** Name the recorded Plant response rating, Cheatgrass of the item CC(C)Oc1cc(-c2nn3c(c2Cl)CCCC3)c(F)cc1Cl [Compound 21] in your answer.
**A:** 4

----------
In this section we review reported Plant response rating, Soybean values for a set of molecules.
- Tested on: soybean
- Assay Name: Test B preemergence/postemergence greenhouse plant response rating 0 to 10
- Format: in vivo, Glycine max
- Recorded Conditions: PREEMERGENCE, Rate 50 g/ha; 0 to 10 scale
Simply state the number, no unit and no words.

C#CC(C)N1C(=O)COc2cc(F)c(-c3nn4c(c3Cl)CCCC4)cc21 (stereo not drawn) : 3
Fc1cc(Cl)c(OC2CCCC2)cc1-c1nn2c(c1Cl)CCCC2 : 0
CC(C)Oc1cc(-c2nn3c(c2Cl)CCCC3)c(Cl)cc1Cl : 0
C=CCOc1cc(-c2nn3c(c2Cl)CCCC3)c(Cl)cc1Cl : 0
CC(C)Oc1cc(-c2nn3c(c2Br)CCCC3)c(F)cc1Cl : 0
C#CCN1C(=O)COc2cc(F)c(-c3nn4c(c3Br)CCCC4)cc21 : 0
CC(C)COc1cc(-c2nn3c(c2Cl)CCCC3)c(F)cc1Cl : 0
CC(C)(C)C(=O)COc1cc(-c2nn3c(c2Cl)CCCC3)c(Cl)cc1Cl : 0

Next, consider the following molecule.
**Q:** Name the recorded Plant response rating, Soybean of the item COC(=O)c1cc(-c2nn3c(c2Cl)CCCC3)c(F)cc1Cl in your answer.
**A:** 4

----------
- System: chickweed
- Assay Name: Test B preemergence/postemergence greenhouse plant response rating 0 to 10
- Assay type: in vivo, Stellaria media
- Recorded Conditions: PREEMERGENCE, Rate 50 g/ha; 0 to 10 scale
Observable: Plant response rating, Chickweed
Simply state the number, no unit and no words.

COC(=O)C(C)Oc1cc(-c2nn3c(c2Cl)CCCC3)c(F)cc1Cl (stereo not drawn) : 1
Clc1cc(Cl)c(-c2nn3c(c2Cl)CCCC3)cc1OCC1CC1 : 0
CCOC(=O)c1cc(-c2nn3c(c2Cl)CCCC3)c(F)cc1Cl : 6

Next, consider the following compound.
**Q:** Name the recorded Plant response rating, Chickweed of the item Fc1cc(Cl)c(OCc2ccccc2)cc1-c1nn2c(c1Cl)CCCC2 in your answer.
**A:** 0

----------
- Tested on: chickweed
- Assay Name: Test B preemergence/postemergence greenhouse plant response rating 0 to 10
- Assay type: in vivo, Stellaria media
- Recorded Conditions: PREEMERGENCE, Rate 50 g/ha; 0 to 10 scale
Observable: Plant response rating, Chickweed
Simply state the number, no unit and no words.

**Q:** Name the recorded Plant response rating, Chickweed of the item CCOC(=O)COc1cc(-c2nn3c(c2Cl)CCCC3)c(F)cc1Cl [Compound 42] in your answer.
**A:** 0

**Q:** Name the recorded Plant response rating, Chickweed of the item Clc1ccc(-c2nc3n(c2Cl)CCC=C3)c(Cl)c1 [Compound 1] in your answer.
**A:** 0

**Q:** Name the recorded Plant response rating, Chickweed of the item Fc1cc(Cl)ccc1-c1nn2c(c1Br)CCCC2 [Compound 52] in your answer.
**A:** 9

**Q:** Name the recorded Plant response rating, Chickweed of the item Fc1cc(Cl)c(OCCCl)cc1-c1nn2c(c1Cl)CCCC2 [Compound 49] in your answer.
**A:** 0

----------
- Test system: chickweed
- Assay Name: Test B preemergence/postemergence greenhouse plant response rating 0 to 10
- Format: in vivo, Stellaria media
- Recorded Conditions: PREEMERGENCE, Rate 50 g/ha; 0 to 10 scale
Observable: Plant response rating, Chickweed
Simply state the number, no unit and no words.

CCN1C(=O)COc2cc(F)c(-c3nn4c(c3Cl)CCCC4)cc21 : 10
CC(C)COc1cc(-c2nn3c(c2Cl)CCCC3)c(F)cc1Cl : 0

**Q:** Give Plant response rating, Chickweed only, for C#CC(C)Oc1cc(-c2nn3c(c2Br)CCCC3)c(F)cc1Cl (stereo not shown) , using chickweed data.
**A:** 4

**Q:** Give Plant response rating, Chickweed only, for C#CC(C)Oc1cc(-c2nn3c(c2Cl)CCCC3)c(Cl)cc1Cl (stereo not shown) , using chickweed data.
**A:** 0
